The entries below come with measured IC50 values attached.
- test target: Recombinant human HSD17B13 (Homo sapiens (Human), UniProt Q7Z5P4)
- Sequence (Q7Z5P4 20-300): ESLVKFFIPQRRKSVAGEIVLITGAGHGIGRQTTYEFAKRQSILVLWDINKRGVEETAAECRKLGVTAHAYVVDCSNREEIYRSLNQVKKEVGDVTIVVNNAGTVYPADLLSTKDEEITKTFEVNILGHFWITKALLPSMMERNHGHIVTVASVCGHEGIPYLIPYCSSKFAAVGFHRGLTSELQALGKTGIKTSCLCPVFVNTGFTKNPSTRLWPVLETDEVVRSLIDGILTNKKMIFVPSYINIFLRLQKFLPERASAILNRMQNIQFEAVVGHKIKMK
- test summary: HSD17B13 rapid-fire mass spectrometry assay (RF/MS assay)
- test settings: inhibition of HSD17B13; LTB4 10 μM, NAD+ 0.5 mM, RT 3 h; IC50 ranges A-E

Reference set (8 entries):
CCC[C@H]1CC[C@H](C2CC=C(c3ccc4c(c3)CN(S(=O)(=O)Nc3ccc(C(=O)O)cc3OC)C4)CC2)CC1 (stereo partly drawn) [Example 377]	1000 to 100000 nM
COc1cc(C(=O)O)ccc1NS(=O)(=O)c1csc(-c2cccc(C#N)c2)n1 [Example 129]	1000 to 100000 nM
CCCOc1c(C2=CCC(C)(C)CC2)ccc(-c2nc(S(=O)(=O)Nc3cc(F)c(C(=O)O)cc3OC)cs2)c1F [Example 576]	100 to 500 nM
COc1ccc(C#Cc2nc(S(=O)(=O)Nc3ccc(C(=O)O)cc3OC)cs2)c(C(C)C)c1 [Example 399]	< 100 nM
CCCCC[C@H]1CC[C@H](c2ccc(-c3cccc(S(=O)(=O)Nc4ccc(C(=O)O)cc4OC)c3F)cc2)CC1 [Example 470]	100 to 500 nM
COc1cc(C(=O)O)ccc1NS(=O)(=O)N1Cc2ccc(-c3ccc(F)cc3)cc2C1 [Example 334]	100 to 500 nM
O=C(O)c1cnc(NS(=O)(=O)c2cnc(-c3ccc(F)cc3)s2)o1 [Example 104]	1000 to 100000 nM
COc1cc(C(=O)O)c(F)cc1NS(=O)(=O)c1csc(-c2ccc(-c3cncc(F)c3)cc2)n1 [Example 655]	100 to 500 nM

Data request: Can you look up the measured IC50 of COc1cc(C(=O)O)c(F)cc1NS(=O)(=O)c1csc(-c2ccc(C3CCC(C)(C)CC3)cc2C2CC2)n1 [Example 547] for me?
Data returned: 100 to 500 nM

Data request: Can you look up the measured IC50 of COc1cc(C(=O)O)c(C2CC2)cc1NS(=O)(=O)c1csc(-c2ccc(C3CCC(C)(C)CC3)cc2C(F)(F)F)n1 [Example 699] for me?
Data returned: 1000 to 100000 nM

Data request: Can you look up the measured IC50 of COc1cc(C(=O)O)ccc1NS(=O)(=O)N1Cc2nc(C3=CCC(F)(F)CC3)sc2C1 [Example 358] for me?
Data returned: 100 to 500 nM

Data request: Can you look up the measured IC50 of COc1cc(C(=O)O)c(F)cc1NS(=O)(=O)c1csc(-c2ccc(C3CCC(C)(C)CC3)c(C)c2)n1 [Example 528] for me?
Data returned: 100 to 500 nM

Data request: Can you look up the measured IC50 of CC[C@H]1CC[C@H](c2ccc(-c3nc(S(=O)(=O)Nc4cc(F)c(C(=O)O)cc4OC)cs3)cc2)CC1 [Example 723] for me?
Data returned: < 100 nM
